Values compiled from the supplement of paper PMC12764529.

Experiment: folding stability dG unfold from chymotrypsin proteolysis; higher = more stable
Task for the reader: assign each of the following sequences its reported folding stability dG unfold.
Answer with a number only, understood to be in kJ/mol.

**Q:** Bench note: what folding stability dG unfold did SAGGSAGGSAGMITIERIPGSGKLVITITDPGSGKVLTIPFDNADPKEALAKAKELLKKLSAGGSAGGSAGG [r17_386_JUSTAS] show?
**A:** 13.4

**Q:** Bench note: what folding stability dG unfold did SAEYTPVGPNEDAEVWEVPNLGKLFTIDPKDDVVEITEVHFDDGDLSPHPHTVRVDVPEEDRDRLRDLLSAG [r14_245_TrMRF] show?
**A:** -4.64

**Q:** Bench note: what folding stability dG unfold did SFTVERNVYRIENPPKLVVNVIITAEDGTPVPPEVVEEAVRELEKAGFPVKKVSVTPLPDGSVLVTVEVDVS [r1_408_TrMRF] show?
**A:** 8.93

**Q:** Bench note: what folding stability dG unfold did SAGGSLPPSTVIESEIVIEIEIENNISGIPGKTEKAFIIIKVTVTTDENGNLSSSVEIEIIPAKDLSAGGSA [r2_448_TrMRF] show?
**A:** 12.4

**Q:** Bench note: what folding stability dG unfold did SAGGGSMTPTTTTKTYNVPPELAQKILDGYPLGDKELAAALGLPPDVEVTLVSSDEDTLTVEITIPASAGGS [r16_679_JUSTAS] show?
**A:** 16.9

**Q:** Bench note: what folding stability dG unfold did SKTVVIKIDNRVPVPKSDKYVPIKEEFFLKVINEIKKKGYKVIITGANPDNPLAKEVAKKAKELGFEVVGSA [r9_468_TrMRF] show?
**A:** 3.37

**Q:** Bench note: what folding stability dG unfold did SAGGSAKPEKVIVLEIEIEMTPEEVKKLVEELLKEKFGVEIERIEVEVERLPDGTLKVRVRVVIRESAGGSA [r15_138_TrROS_Hall] show?
**A:** 12.3

* * *

Assay: folding stability dG unfold (combined trypsin and chymotrypsin); higher = more stable
Rule: Condition met for folding stability dG unfold not less than 1 kcal/mol, Condition not met for anything less.

**Q:** Given SAGGSAGGSAGKAKIEVVEVDKNGKVRLKIKLENGEVKEIENADEITINGKKIKVEKIEPSAGGSAGGSAGG [r11_1017_TrROS_Hall] , state whether its folding stability dG unfold is at least 1 kcal/mol.
**A:** Condition met

**Q:** Given SMKPITLEEALKLAEKLIEEGAKEVVIIRREDGTLLAIMEAEEASPEKVKEFLEANPNVRVLRITGSKEESA [r9_568_TrMRF] , state whether its folding stability dG unfold is at least 1 kcal/mol.
**A:** Condition met

**Q:** Given SAGGSAPVIPVKSEEEAKEVAKAASPDKDLLFKYPKGNVKLITIDPKNGPKITVKETLPVSPEKALSAGGSA [r15_577_JUSTAS] , state whether its folding stability dG unfold is at least 1 kcal/mol.
**A:** Condition not met

**Q:** Given SAGGIREIADELGMPPGDKVTIDIERPRDGKPQTQEIEFPPDNVEDILDQMGIPPDQMKITKLKVDKDSAGG [r13_681_TrROS] , state whether its folding stability dG unfold is at least 1 kcal/mol.
**A:** Condition not met

**Q:** Given SAGGEELARRLAEELRELGLEVEVVDVDLEEGKITIRVRPAPPPPPVTERRTRRRPDGREVTEERVLSAGGS [r8_318_TrROS_Hall] , state whether its folding stability dG unfold is at least 1 kcal/mol.
**A:** Condition not met

**Q:** Given SAGGSAGGSAGGVKPGEVLPDGRLLVTWDEETNELTVYFEDTETITLKAPPPVVVSPEDLSAGGSAGGSAGG [r7_522_TrROS_Hall] , state whether its folding stability dG unfold is at least 1 kcal/mol.
**A:** Condition not met

**Q:** Given SAGGTVEEIKEKLEEAGWEVVKVEKKEDGSITVTVRRKDGKELKIEIDLKNEEVRKALAELLPEEELSAGGS [r16_821_TrROS_Hall] , state whether its folding stability dG unfold is at least 1 kcal/mol.
**A:** Condition met

* * *

Experiment: folding stability dG unfold from chymotrypsin proteolysis; higher = more stable
Metric: folding stability dG unfold (kcal/mol)
Answer with a number only, understood to be in kcal/mol.

**Q:** Bench note: what folding stability dG unfold did SAGGSAGGSAEVEIEVDKETKELYIKDSNGKVKKIKVKVVKVEVKKPVVTLPKEELSEEELKSAGGSAGGSA [r18_59_TrROS_Hall] show?
**A:** -0.357

**Q:** Bench note: what folding stability dG unfold did SAGGSAGGSAGWFFVMDIKYEYRQTPDGKTEQEMSIEMKPIPPIPAEDLKEKLGLPPEDIASAGGSAGGSAG [r3_338_TrROS] show?
**A:** 2.62

**Q:** Bench note: what folding stability dG unfold did SAGMITLPTRGPEELIERLRAIAEELGLSEEDIEQFLRDLAEHATIEQDGDLLLITFQPPVPALPGEPESAG [r5_717_TrMRF] show?
**A:** 1.91

**Q:** Bench note: what folding stability dG unfold did SAGGAVEKNSNNPNTSPEKAKEIAEEIAEELKKEGHVPKSISFSEKENGKLTATIKIEDGKELTIGLSAGGS [r8_485_JUSTAS] show?
**A:** -0.467

**Q:** Bench note: what folding stability dG unfold did SMTVVTVEKTPDGGVTITVYVPETGEEVEIPVTDPEVQKKATEDPNTTVKVPKEVLESFYPDRITSLSYTSA [r9_390_JUSTAS] show?
**A:** -0.169

**Q:** Bench note: what folding stability dG unfold did SAGGSAGGSAGGSMYTLLSTENRPDPNSSKPVTTKTYKLPDGSTVVVTEYPDSVEEKPLVSAGGSAGGSAGG [r7_479_JUSTAS] show?
**A:** -0.122

**Q:** Bench note: what folding stability dG unfold did SAGGSDKEEKEKEIDIRIVQVPWDDARELAEESDDPVIFMLPDGHIHIFKGDGKVEPFPIPDPEEFSAGGSA [r2_34_TrROS] show?
**A:** 0.199

**Q:** Bench note: what folding stability dG unfold did SAGGSAGVLEAVVFNPETGTFSVIPAAVLEKAFAANPADTELTFTLKDKPVKVFVFPGPGLAVVTGSAGGSA [r15_350_TrMRF] show?
**A:** 1.56

**Q:** Bench note: what folding stability dG unfold did SAGGESTPEIEPVATLELPTPDGRPITVEVYRLKDGTVRVVVRNPNPPETITLTIPAKEGETIPIFLSAGGS [r16_566_TrMRF] show?
**A:** 2.2

**Q:** Bench note: what folding stability dG unfold did SAGGSAGGMKEVIEAALKDGSKEFYAPGFSPDKVYDVKITVYPGEGKVEIEVEGKRFTVSPEDLSAGGSAGG [r6_749_TrMRF] show?
**A:** 0.765

**Q:** Bench note: what folding stability dG unfold did SAGGSAGGSAGGRFEVLGVEPLPGNWVRVRVRYPGLGREATFLVRVSSLPLPPVDLDRFDSAGGSAGGSAGG [r11_986_TrMRF] show?
**A:** 3.11

**Q:** Bench note: what folding stability dG unfold did SAGKSKPILVEITFPNGEKAKVLAVEFPNTVYVFAVVTSKDGSKYLVEAIIDVSPTKIKIFTKSYPLESAGG [r19_385_TrMRF] show?
**A:** 4.1

**Q:** Bench note: what folding stability dG unfold did SAGGSAGGSAGMEPPEIKVEVSSDPTPSGMKVETIKDLGKGKTIIVLKPEDGSVSTSTLESAGGSAGGSAGG [r11_55_JUSTAS] show?
**A:** 0.286

**Q:** Bench note: what folding stability dG unfold did SAGGSAGGSGVSSVLESLPPSYTVTVEKLPESGKLVVTVTSPSGAAPSLTLDEELADLLKELLSAGGSAGGS [r12_174_JUSTAS] show?
**A:** 0.626

**Q:** Bench note: what folding stability dG unfold did SAGGSAGGSASNVKILGLVSVDPETGLVRLAAYDPETGKVLYFIAPNADGEPLLLEVEENPGSAGGSAGGSA [r18_296_TrMRF] show?
**A:** 2.44

**Q:** Bench note: what folding stability dG unfold did SAGGSAGGSKKKIKVIIEVEVNGKKYKIEVEAETEEEAKKKAEEAIKELKKKFPNVKIKKIKPSAGGSAGGS [r12_230_TrROS_Hall] show?
**A:** 4.08

**Q:** Bench note: what folding stability dG unfold did SAGGMKIEFDEKTKRITITLPDGKKVEIELKDGRKVEITFERVDGKLKVVIKHKNEEEALELAKKLLSAGGS [r16_623_TrROS_Hall] show?
**A:** 1.34

**Q:** Bench note: what folding stability dG unfold did SAGGKIIAEGEFELEDGYVVRVKVEYDEETGELRVEVEVFEVEVELPEVEVKREFSDEELTEEEKEASAGGS [r8_461_TrROS_Hall] show?
**A:** 1.77

**Q:** Bench note: what folding stability dG unfold did MFKPGTKVTFGDKTVEVPEGDELYIFEGKVFGTSEVEAVLENMSDDAVGYKLVVEDETGKIVKVEEFVFKPS [r1_304_TrMRF] show?
**A:** -0.172

**Q:** Bench note: what folding stability dG unfold did SAGSSRIIFYPENNTYLIETPEGSFTLPETVTTTTPAPTGENPDRTVPRPTTTYVATELSLEEAEKLLSSAG [r5_234_JUSTAS] show?
**A:** 0.367

**Q:** Bench note: what folding stability dG unfold did SAGTVTIGIWIPADDIEQIKELIRSIAEEHGWEVKVDKIEPNPDGQYFVTVTVENPENGKEIKITIWIPSAG [r5_41_TrROS] show?
**A:** 3.39

**Q:** Bench note: what folding stability dG unfold did SAGMKPGETITIVLPDGTKIEIKILENGEVEIVKIEKKEDGTYKITIRVKVNGKEIEKEITLPPGAKILSAG [r5_394_TrROS_Hall] show?
**A:** 2.04

**Q:** Bench note: what folding stability dG unfold did SPPVRARIRVERLPDGSVRVELEVEFPDGVRVRIETLEAPPETGVVRVRARFFPPDGSSVEFEFTFPLLRSA [r9_1179_TrMRF] show?
**A:** 4.96

**Q:** Bench note: what folding stability dG unfold did SAGGSAGGSMKTITVPPEVLAALPLEEIVERNTSPDEEVEVEFVEEPGPVTVIIDTKKKPEHHSAGGSAGGS [r12_716_JUSTAS] show?
**A:** 0.551

**Q:** Bench note: what folding stability dG unfold did SAGGSAGGSAGSMPVTVTERVVTSETPLPTDELAVKTTVTYPDGTAADFTRLLPPDAPLESAGGSAGGSAGG [r11_429_JUSTAS] show?
**A:** 0.875

**Q:** Bench note: what folding stability dG unfold did SAGGSAGGMPPVSLPETPVTITDPATGKPRLVTVLAAAPDGTLTVRFPDGSEVTVAGEPLLELESAGGSAGG [r6_435_JUSTAS] show?
**A:** 1.05

**Q:** Bench note: what folding stability dG unfold did SAGGMSITITTNAPKEVLLRFIKDLAEEIGVEVDVEVTVEPLEDGPIVTAHVHIDPKEPEVPLEELFSAGGS [r16_262_TrMRF] show?
**A:** 0.384
